Entries and their measured Activity follow.
Species on record: Oryctolagus cuniculus
Experiment: Activation of actin-stimulated rabbit skeletal muscle myosin S1 fragment ATPase activity at 100 uM after 10 mins by spectrophotometric analysis relative to control
Expressed in %, but write only the number.

Known Activity results, listed for orientation:
| compound | reading-unit | value-measured |
| --- | --- | --- |
| COc1ccccc1CCNC(=O)NCCCc1ccccc1 | % | 3.5 |
| Cc1ccc2c(c1)C(=O)[C@]1(O)CCN(c3ccccc3)C1=N2 | % | -50.7 |

Q: Give Activity for COC(=O)N1CCN(Cc2cccc(NC(=O)Nc3ccc(C)nc3)c2F)CC1 [OMECAMTIV MECARBIL]
A: 2.8

Q: Give Activity for "O=C(NCCCc1ccccc1)NCCc1ccccc1"
A: -2.1

Q: Give Activity for "O=C(NCCCc1ccccc1)NCc1ccccc1"
A: 1.4

Q: Give Activity for "COc1ccc(CCNC(=O)NCCCc2ccccc2)cc1OC"
A: -2.4

Q: Give Activity for "CN(C)S(=O)(=O)c1ccc(CCNC(=O)NCCCc2ccccc2)cc1"
A: -3.8
